# METHOD SUMMARY: Biodistribution in tumor of iv dosed BALB/c mouse bearing mouse Colon-26 cells after 48 hrs
# Type: ADME, organism-based, Neoplasm
# EXPERIMENTAL PARAMETERS: read-out: Drug uptake
MEASURED QUANTITY: tissue uptake at 48 h (%ID/g)
Dear colleague, please return just the value in %ID/g, with no unit written.

q: Need tissue uptake at 48 h of CCC1=C(C)c2cc3[nH]c(cc4nc(c5c6[nH]c(cc1n2)c(C)c6C(=O)C5)[C@@H](CCC(=O)OC)[C@@H]4C)c(C)c3C(C)OCc1cccc([124I])c1 (stereo partly specified) , thanks.
a: 4.4
